biological target: HLA-DR DRB5*0101 (DR51) (Homo sapiens, UniProt P01903+Q30154); assay: biochemical; assay type: binding; conditions: DRB5 *0101
No end group written: not given here.
parameter: IC50 (µM)
Write it as a number; the unit µM goes unstated.

Query HFNMLKNKMQSSFFM yields IC50 of 0.06

Query FLRSVFANSLVYGAS yields IC50 of 0.141

Query PRWLCAGALVLAGGF yields IC50 of 40.8

Query DDYVKQYTKQYTKQNTLKK yields IC50 of 0.035

Query GAPLGGAARALAHGV yields IC50 of 12

Query NHLINTPKIMPHHII yields IC50 of 8.88

Query YKSAHKGFKGVDAQGTLSKI yields IC50 of 1.33

Query ILFLVKMNALRRLPV yields IC50 of 0.014

Query YILLKKILSSRFNQM yields IC50 of 0.083

Query NPVVHFFKNIVTPR yields IC50 of 1.89

Query KLSQELHKLQTYPRT yields IC50 of 0.037

Query FLYGALLLAEGFYTTGAVRQ yields IC50 of 0.256

Query PVIKNSIKLRL yields IC50 of 1.04

Query LTELYFEKGEYFVEM yields IC50 of 6.66

Query ENPVVHAFKNIVTPR yields IC50 of 0.91

Query GSHLVEALYLVTGER yields IC50 of 11.4

Query EVFFQRLGIASGRAR yields IC50 of 0.0079

Query HLDMLRHLYQGCQVV yields IC50 of 7.09

Query HFFKNIVTPRTPPY yields IC50 of 0.377

Query QKGRGYRGQHQAHSLERVCH yields IC50 of 9.76

Query ALLIIPPKIHISIEL yields IC50 of 7.14

Query HQAISPRTLNGPGPGSPAIF yields IC50 of 32.9

Query EDFFKLERDMKINCS yields IC50 of 3.49

Query TSNLSTTVLGKLSQE yields IC50 of 2.53

Query LWQLNGRLEYTLKDR yields IC50 of 6

Query YDPLYCESVHNFTLP yields IC50 of 28.8

Query LFRVYSNFLRGKLKL yields IC50 of 0.0029

Query YEALIKLLPFSKRIR yields IC50 of 0.011

Query LQQMLLGTLQVVCPG yields IC50 of 29.2

Query RLFDNASLRAHRLHQ yields IC50 of 0.557

Query EQTTTSITSLYQLEN yields IC50 of 48.5

Query DLFVVYRDSIPHAAC yields IC50 of 10.7

Query EHTSLNENITVPDTK yields IC50 of 5.55

Query SLSLGFLFLLFFWLD yields IC50 of 66.7

Query ALLKNYGLLYTFRKD yields IC50 of 0.029

Query RTITADTFRKLFRVY yields IC50 of 0.093

Query HPLYNMSLLKHQSLR yields IC50 of 0.219

Query SAFLESQSMNKIGDD yields IC50 of 0.243

Query MTLYQIQVMKRNQKQ yields IC50 of 0.022

###

target: HLA-DR DRB3*0101 (DR52) (Homo sapiens, UniProt P01903+P79483); test: biochemical; type: binding; settings: read-out: DRB3 *0101
parameter: pIC50
# log scale: pIC50 equals minus log10 of the concentration in mol/L

pIC50 for HLA-DR DRB3*0101 (DR52) (Homo sapiens, UniProt P01903+P79483) with input LPSWATEDTMTKIRE equals 5.22

pIC50 for HLA-DR DRB3*0101 (DR52) (Homo sapiens, UniProt P01903+P79483) with input AAFAAAKTAAAFA equals 4.70

Origin of measurements: patent US20060079453A1
